EXPERIMENTAL SYSTEM: MAGI2_2, Q86UL8
Sequence (Q86UL8 410-522): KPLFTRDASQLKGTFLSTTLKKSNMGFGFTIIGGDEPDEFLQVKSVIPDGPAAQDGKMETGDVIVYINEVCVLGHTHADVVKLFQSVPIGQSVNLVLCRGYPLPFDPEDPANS
TEST NAME: holdup assay
Design: key: below the threshold = too weak to quantify, mostly under pKd 3.1 to 4
ASSAY CONTEXT: plain residues with an end cap or a label only (N-terminal biotin on a linker: ado-ado)

- BINDER: "EDPRVEVTQF [SLC22A9, Q8IVM8]"
  pKd: "below the threshold"
- BINDER: "NNNVVKVDSV [MTNR1A, P48039]"
  pKd: "below the threshold"
- BINDER: "LAHVKHKEQI [AQP3, Q92482]"
  pKd: "below the threshold"
